Provide the reported pIC50 of each item.
# system tested: Beta-lactamase (Pseudomonas aeruginosa, UniProt Q79MP6)
# Sequence (Q79MP6 whole entry): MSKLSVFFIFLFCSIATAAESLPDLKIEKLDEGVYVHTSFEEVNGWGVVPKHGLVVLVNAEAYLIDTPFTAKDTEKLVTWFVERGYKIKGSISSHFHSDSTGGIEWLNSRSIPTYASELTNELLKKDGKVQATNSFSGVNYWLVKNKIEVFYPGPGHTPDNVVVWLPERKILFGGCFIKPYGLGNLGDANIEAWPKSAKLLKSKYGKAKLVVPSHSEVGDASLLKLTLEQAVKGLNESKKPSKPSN
# assay comment: Inhibition of metallo-beta-lactamase (MBL) from Pseudomonas aeruginosa mediated by the plasmid-borne IMP-1 enzyme.
Reminder that pIC50 means the negative base-10 logarithm of the concentration expressed in mol/L.

get_value(item= "CCCCc1nn(-c2cc(Cl)ccc2Cl)c(C(=O)OCC)c1Cc1ccc(-c2ccccc2-c2nn[nH]n2)cc1" , readout=pIC50) returns 4.22

get_value(item= "CCCCc1nn(-c2ccccc2Cl)c(C(=O)OCC)c1Cc1ccc(-c2ccccc2-c2nnn[nH]2)cc1" , readout=pIC50) returns 3.70

---

# system tested: UniProt P22412
# Sequence (P22412 whole entry): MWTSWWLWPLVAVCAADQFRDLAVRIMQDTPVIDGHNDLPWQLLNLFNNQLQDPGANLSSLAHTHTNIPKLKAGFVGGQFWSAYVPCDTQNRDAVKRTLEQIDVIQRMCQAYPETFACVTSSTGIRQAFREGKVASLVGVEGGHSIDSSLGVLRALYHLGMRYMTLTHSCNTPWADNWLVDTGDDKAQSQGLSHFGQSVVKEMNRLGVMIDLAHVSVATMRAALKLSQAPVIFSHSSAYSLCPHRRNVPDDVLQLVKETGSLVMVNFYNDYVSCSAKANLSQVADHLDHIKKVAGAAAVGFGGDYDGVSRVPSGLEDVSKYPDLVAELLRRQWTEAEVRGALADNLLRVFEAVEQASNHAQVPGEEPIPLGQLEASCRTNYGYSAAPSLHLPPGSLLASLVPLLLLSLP
Provide the reported pKi of each item.
Reminder that pKi means the negative base-10 logarithm of the concentration expressed in mol/L.

Record "CCCCc1nn(-c2ccccc2[N+](=O)[O-])c(C(=O)O)c1Cc1ccc(-c2ccccc2-c2nnn[nH]2)cc1" has UniProt P22412 pKi equal to 3.19

Record "CCCCc1nn(-c2cccc(Cl)c2)c(C(=O)OCC)c1Cc1ccc(-c2ccccc2-c2nn[nH]n2)cc1" has UniProt P22412 pKi equal to 3.35

Record "CCCCc1nn(-c2cc(Cl)ccc2Cl)c(C(=O)O)c1Cc1ccc(-c2ccccc2-c2nnn[nH]2)cc1" has UniProt P22412 pKi equal to 3.42

Record "CCCCc1nn(-c2cc(Cl)ccc2Cl)c(C(=O)OCC)c1Cc1ccc(-c2ccccc2-c2nn[nH]n2)cc1" has UniProt P22412 pKi equal to 4.10

Record "CCCCc1nn(-c2cccc(Cl)c2Cl)c(C(=O)OCC)c1Cc1ccc(-c2ccccc2-c2nnn[nH]2)cc1" has UniProt P22412 pKi equal to 3.77

Record "CCCCc1nn(-c2ccc(Cl)cc2Cl)c(C(=O)OCC)c1Cc1ccc(-c2ccccc2-c2nnn[nH]2)cc1" has UniProt P22412 pKi equal to 3.32

Record "CCCCc1nn(-c2ccccc2)c(C(=O)OCC)c1Cc1ccc(-c2ccccc2-c2nnn[nH]2)cc1" has UniProt P22412 pKi equal to 3.60

Record "CCCCc1nn(-c2c(Cl)cc(Cl)cc2Cl)c(C(=O)O)c1Cc1ccc(-c2ccccc2-c2nnn[nH]2)cc1" has UniProt P22412 pKi equal to 3.10

---

Provide the reported IC50 of each item.
# system tested: Beta-lactamase (Pseudomonas aeruginosa)
# assay comment: Inhibition of metallo-beta-lactamase (MBL) from Pseudomonas aeruginosa mediated by the plasmid-borne IMP-1 enzyme.

get_value(item= "CCCCc1nn(-c2ccccc2C)c(C(=O)OCC)c1Cc1ccc(-c2ccccc2-c2nn[nH]n2)cc1" , readout=IC50) returns > 200 µM

get_value(item= "CCCCc1nn(-c2cccc(Cl)c2Cl)c(C(=O)O)c1Cc1ccc(-c2ccccc2-c2nnn[nH]2)cc1" , readout=IC50) returns > 200 µM

get_value(item= "CCCCc1nn(-c2ccccc2)c(C(=O)O)c1Cc1ccc(-c2ccccc2-c2nn[nH]n2)cc1" , readout=IC50) returns > 200 µM

get_value(item= "CCCCc1nn(-c2ccccc2-c2ccccc2)c(C(=O)OCC)c1Cc1ccc(-c2ccccc2-c2nn[nH]n2)cc1" , readout=IC50) returns 150 µM

get_value(item= "CCCCc1nn(-c2ccccc2)c(C(=O)OCC)c1Cc1ccc(-c2ccccc2-c2nnn[nH]2)cc1" , readout=IC50) returns > 200 µM
